Read-out: adenosine kinase (ADK) gene, ADK (gene 132)
Test: LTEA_HepaRG_ADK: Life Technologies and Expression Analysis (LTEA) Assay for adenosine kinase (ADK) gene using HepaRG (AID 2283471)
Settings: mRNA level, 48 h; actives raise or lower the signal
Active and inactive are the calls of the source. Rule for the calls: active = hit-call score of the fitted dose curve at least 0.9, where 1 is the maximum; inactive = score below 0.9.
Respond using exactly one of the listed classes: active, inactive

- MOLECULE: "CNC(=O)ON=C(C)SC"
  GROUP_LABEL: "inactive"
- MOLECULE: "CCOP(=S)(OCC)Oc1ccc([N+](=O)[O-])cc1"
  GROUP_LABEL: "inactive"

Recorded test call requested for `CSc1nc(NC(C)C)nc(NC(C)C)n1`
inactive

Which outcome was entered for the molecule `CNC(=O)Oc1cccc2c1OC(C)(C)O2` in this test?
inactive

Test call for this molecule, please: `CCOP(=S)(OCC)Oc1ccc2c(C)c(Cl)c(=O)oc2c1`
inactive

// param item: CC(C)=CC1C(C(=O)OCN2C(=O)C3=C(CCCC3)C2=O)C1(C)C (stereo not given) ; yields the recorded call
inactive

// return assay outcome for `CCCCN(CC)c1c([N+](=O)[O-])cc(C(F)(F)F)cc1[N+](=O)[O-]`
inactive

###

Assay: BSK_3C_SRB: Viability Assessment in the BioMAP Diversity Plus: 3C Assay (AID 2283023);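 note: cells read 24 h after compound dosing; fitted both ways against DMSO so a hit may be signal rise or drop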
Conditions: primary human endothelial cells (HUVEC)
Calls of active or inactive are those of the source. How the source made its calls: active means hit-call score of the fitted dose curve at least 0.9, where 1 is the maximum; inactive means score below 0.9.
Pick from YES = active, NO = inactive when you respond.

Would you please look over these solved cases?
- COMPOUND: "Cc1nn(-c2cc(NS(C)(=O)=O)c(Cl)cc2Cl)c(=O)n1C(F)F"
  GROUP_LABEL: "NO"
- COMPOUND: "N#CSCSC#N"
  GROUP_LABEL: "YES"

Please let me know the test result on file for `CCC(CC)Nc1c([N+](=O)[O-])cc(C)c(C)c1[N+](=O)[O-]` .
YES

Hello, I am checking results. What call was entered for `CSc1nnc(C(C)(C)C)c(=O)n1N` ?
NO

Query: recorded result category for `CCCCSP(=O)(SCCCC)SCCCC` in this test
YES

Can you look up the reported call for `CSc1nc(NC(C)C)nc(NC(C)C)n1` for me?
YES

Outcome logged for `CSC1=N[C@@](C)(c2ccccc2)C(=O)N1Nc1ccccc1` in this assay:
YES

Per the records of this test, what outcome belongs to `CCOP(=S)(OCC)Oc1cc(C)nc(C(C)C)n1` ?
NO

Name the outcome recorded for `CC(C)N(C(=O)SCC(Cl)=C(Cl)Cl)C(C)C` in the assay.
YES

Dear all, I need the recorded test outcome for `C[Si](Cn1cncn1)(c1ccc(F)cc1)c1ccc(F)cc1` , thank you.
YES

Lab log entry: `COP(=O)(OC)SCn1c(=O)oc2cc(Cl)cnc21` — outcome as called in the assay?
YES

What is the recorded call for this compound in the test? CCc1cnc(C2=NC(C)(C(C)C)C(=O)N2)c(C(=O)O)c1 (centres undefined)
NO

Can you look up the reported call for `COc1ccc(C(=CC(=O)N2CCOCC2)c2ccc(Cl)cc2)cc1OC` for me?
NO

Hi, sorry to bother you, what did the test record for CC(C)=CC1C(C(=O)OCN2C(=O)C3=C(CCCC3)C2=O)C1(C)C (centres undefined) ?
YES

For `Nc1c(Cl)cc([N+](=O)[O-])cc1Cl` , what call appears in the results of this test?
NO

Fill in: this test's call for CCc1cccc(C)c1N(C(=O)CCl)C(C)COC (centres undefined) is ___
NO

Record lookup: outcome of this test for `CC1=NNC(=O)N(/N=C/c2cccnc2)C1` ?
NO

Any idea what this test logged for `CN(C)[C@@H]1C(=O)C(C(N)=O)=C(O)[C@@]2(O)C(=O)C3=C(O)c4c(O)cccc4[C@@](C)(O)[C@H]3[C@H](O)[C@@H]12` ?
NO

Which outcome was entered for the compound CCC(=NOC/C=C/Cl)C1=C(O)CC(C2CCOCC2)CC1=O (centres undefined) in this test?
NO
